FYI, the data here is from ChEMBL document CHEMBL1201862.

test system: SW-620; test: NCI tumour cell line growth inhibition, 48 h
Calls of active or inactive are those of the source. No stated cut-off is given here; in the data, active = GI50 up to about 1.1 µM and inactive = higher. Where a SMILES comes first, the peptide text is derived from it. [ ]: non-standard residue; d: D form. The star is where a group is joined. mTyr = N[CH](Cc1cccc(O)c1)C(=O)O; Cbz = O=C(OCc1ccccc1)*; OBn = c1ccc(CO*)cc1
Hello, when you answer, please use one of the following outcomes: true (1) for active, false (0) for inactive

stdin: Called result for COC(=O)[C@@]1(C)CCC[C@]2(C(=O)O)C3Cc4occc4[C@H](C)[C@@H]3CCC21 (some centres not stated)
stdout: false (0)

stdin: What did this assay record as the result for CC(C)(C)/N=C1\C(=O)C2(C)CCC1C2(C)C (configuration not stated) ?
stdout: false (0)

stdin: // outcome(item) with item = CSc1ncnc2c1cnn2Cc1cnnn1COCC(O)CO (configuration not stated)
stdout: false (0)

stdin: Write down the call the test reported for this compound. Item: CCNC(=S)N/N=C1\C(=O)Nc2ccc([N+](=O)[O-])cc21
stdout: false (0)

stdin: Recorded test outcome, item C[n+]1c(-c2ccc(/C=C/C=N\NC(=O)c3ccc(C(=O)N/N=C\C=C\c4ccc(-c5cn6ccccc6[n+]5C)cc4)cc3)cc2)cn2ccccc21
stdout: false (0)

stdin: Assay outcome for CCCCOC(=O)Nc1ccc(S(=O)(=O)Nc2ccccc2Cl)cc1 : what was it?
stdout: false (0)

stdin: Identify the outcome logged in this assay for the compound shown: C/C(=N\N=C(/S)SCc1ccccc1)c1ccccn1
stdout: true (1)

stdin: Record request — test call for O=c1[nH]c(Nc2ccc(Br)c(C(F)(F)F)c2)nc2[nH]cnc12
stdout: false (0)

stdin: What classification did COc1ccccc1CNCCCCCNCCCCCCCCCCNCCCCCNCc1ccccc1OC end up with in this test?
stdout: false (0)

stdin: Can you look up the reported call for COc1ccc(NC(=O)CC(=O)N/N=C/c2ccc(N(CCC#N)S(=O)(=O)c3ccccc3)cc2)cc1 for me?
stdout: false (0)

stdin: Per the assay record, what outcome was assigned to CCOc1ccc2c(c1)[n+]([O-])c(-c1ccccc1Cl)c(N)[n+]2[O-] ?
stdout: false (0)

stdin: Assay result, entry O=C(O)COc1ccccc1C(=O)Nc1ccccc1 — outcome?
stdout: false (0)

stdin: How was COC(=O)c1c2c(cc3c1CCC3)CCC2 classified in this test?
stdout: false (0)

stdin: Any idea what this test logged for [N-]=[N+]=NC1(N=[N+]=[N-])C(=O)NN=C(c2ccccc2)C1=O (configuration not stated) ?
stdout: false (0)

stdin: Assay outcome for COC(=O)C(Cc1cccc(O)c1)NC(=O)C(CC(=O)OCc1ccccc1)NC(=O)OCc1ccccc1 (configuration not stated) (Cbz-Asp(OBn)-[mTyr]-OMe; configuration not given here) : what was it?
stdout: false (0)

stdin: State the result this test recorded for N#Cc1ccc(OC(=O)c2ccc(NC(=N)N)cc2)cc1.c1ccncc1 .
stdout: false (0)

stdin: Per the assay record, what outcome was assigned to COC(=O)/C(=C\C(=O)c1ccc(Br)cc1)NN=C(c1ccccc1)c1ccccc1 ?
stdout: false (0)

stdin: Look up the recorded call for O=C(CNc1ccc(Cl)cc1Cl)NC1C=Cc2ccc(S(=O)(=O)Nc3ccc(Cl)cc3Cl)cc2C1=O (configuration not stated) in this test.
stdout: false (0)

stdin: Test call, this compound: Fc1cccc(C2SCc3nc4ccccc4n32)c1F (configuration not stated)
stdout: false (0)

stdin: Assay outcome for Cc1ccc(C2=Nc3cccc4cccc(c34)N2)cc1 : what was it?
stdout: false (0)

stdin: What classification did CC(C)=CCNc1ncnc2c1ncn2CCC#N end up with in this test?
stdout: false (0)

stdin: Returns: the outcome recorded for CN(C)CCNC1=Nc2ccccc2C(=S)N2CSCC12 (configuration not stated) in this assay.
stdout: false (0)
